# credit: ChEMBL document CHEMBL3507680

- ASSAY_DETAILS: Human HepG2 cell viability assay in 384 well format
- Format: toxicity, cell-based
- Parameters: dose 125 nL, time 70.5 hour; concentration not given beside the values
- TEST_CONDITIONS: HepG2 cells, read-out: Inhibition
# cytotoxicity at 70.5 h per entry
Entry rule: numbers only, all in %.

In: Answer with reported cytotoxicity at 70.5 h of Cc1cncc(C(=O)N2CC[C@@H]3[C@H]2CCC(=O)N3CCN(C)C)c1
Out: 2.21

In: Answer with reported cytotoxicity at 70.5 h of COc1cccc(-n2nnc(C(=O)N3CCN(C(C)=O)CC3)c2C)c1
Out: -6.81

In: Answer with reported cytotoxicity at 70.5 h of CS(=O)(=O)N[C@H]1CN(C(=O)CCc2ccc(=O)[nH]n2)C[C@@H]1C1CC1
Out: -7.22

In: Answer with reported cytotoxicity at 70.5 h of C[C@H]1C[C@@H]2CCN(C(=O)c3ccncn3)C[C@H]2O1
Out: -0.838

---
In: Answer with reported cytotoxicity at 70.5 h of O=C1CC2(CCCCN2CC2CC2)CN1c1ccccc1 (stereo not given)
Out: -3.65
